This collection of values is drawn from patent US20200377595A1.

# TGT: T1, biotin-labeled cynomolgus monkey CD137 fused to human IgG1 Fc fragment (cynomolgus monkey; human, UniProt Q07011 24-186, limits assumed, biotin-labeled)
# T1 construct: also called cyno CD137-Fc; not shown: human IgG1 Fc fragment
# T1 chain: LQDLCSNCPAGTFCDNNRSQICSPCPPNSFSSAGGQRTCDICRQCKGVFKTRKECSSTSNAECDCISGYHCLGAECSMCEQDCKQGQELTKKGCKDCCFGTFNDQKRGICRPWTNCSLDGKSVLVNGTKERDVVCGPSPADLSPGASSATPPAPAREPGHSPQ
# PROCEDURE TEXT: ELISA, IgG

BINDER	binding result
dBBDu202 (antibody, IgG1, V domains shown, IgG1) VH: QVQLVESGGGLVQPGRSLRLSCAASGFTFSNAWMHWVRQAPGKGLEWVAQIKDKGNAYAAYYAPSVKGRFTISRDDSKNSIYLQMNSLKTEDTAVYYCHYVHYSAASTVLPAFGVDAWGQGTTVTVSS VL: DIVMTQSPLSLPVTPGEPASISCRSSQSLVHSNRNTYLHWYQQKPGQAPRLLIYKVSNRFSGVPDRFSGSGSGTDFTLKISRVEAEDVGVYYCGQGTQVPYTFGQGTKLEIK	binds
dBBDu174 (antibody, IgG1, V domains shown, IgG1) VH: QVQLVESGGGLVQPGRSLRLSCAASGFTFSSAWMHWVRQAPGKGLEWVAQIKDRASAYNAYYAESVKGRFTISRDDSKNSIYLQMNSLKTEDTAVYYCRYVHYPSYVSFLPYYGVDAWGQGTTVTVSS VL: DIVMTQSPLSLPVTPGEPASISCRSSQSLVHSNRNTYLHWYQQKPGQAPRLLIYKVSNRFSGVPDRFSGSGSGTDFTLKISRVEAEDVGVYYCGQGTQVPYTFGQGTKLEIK	binds
